# Test system: OVCAR-4 ovarian
# test name: NCI tumour cell line growth inhibition, 48 h
Each item that follows carries a reported TGI.

Answered examples (5):
compound: Oc1ccc(-c2nc3ccc4ccccc4c3c3c2CCCC3)c(O)c1
value: > 100 µM
--
compound: COC1=CC(=O)c2c(ccc3ncnc(N)c23)C1=O
value: 1.28 µM
--
compound: CC1=NCC[N+]1(CCc1ccccc1)Cc1ccccc1 (configuration not stated)
value: > 100 µM
--
compound: Cc1ccc(NC(=O)/C(CC2N=c3c(ccc4c(O)c5ccccc5c(O)c34)=NC2O)=N/NC(C)(C)C)cc1 (configuration not stated)
value: 45.1 µM
--
compound: CCCCC1CC(c2ccc(Cl)cc2)=NO1 (configuration not stated)
value: > 100 µM

Enquiry: I am curious: what TGI value has been reported for "N#CC[C@@H](O)COc1ccccc1" ?
Return: > 100 µM

Enquiry: Try "O=C1C(Cl)=C(Nc2cccc(O)c2)C(=O)N1CCc1ccccc1" next.
Return: 55.3 µM

Enquiry: One more compound: "N#Cc1c(-c2ccc([N+](=O)[O-])cc2)cc(-c2ccc(Nc3ccnc4cc(C(F)(F)F)ccc34)cc2)[nH]c1=O"
Return: > 100 µM
